Reference for the values: PubChem BioAssay AID1845217

- Test system: VA-ES-BJ tumor spheroid viability
- assay-details: Anticancer human tumor VA-ES-BJ cell line growth inhibition;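 also: spheroids exposed to compounds for seven days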;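 as to viability, T/C: percent of DMSO vehicle control viability so 100% = untreated growth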
- cond: second compound 0.03 µM; first compound 3.16 µM; stronger effect = lower value; spheroids with HUVEC and MSC
Please use t for viability, T/C under 30% and f for everything else, ties included.

Below 30% on viability, T/C? Entry [2H]c1nc(C)nc([2H])c1-c1cc(NC[C@@H](C)c2cccc3c(C(=O)NC)ccnc23)ncn1 + CC[C@@]1(O)C(=O)OCc2c1cc1n(c2=O)Cc2cc3c(CN(C)C)c(O)ccc3nc2-1
f

Below 30% on viability, T/C? Entry COc1ccc([C@@H](O)c2cc(-c3ncnc4cc(N5CCOCC5)ccc34)c(F)cc2Cl)nn1 + CC[C@@]1(O)C(=O)OCc2c1cc1n(c2=O)Cc2cc3c(CN(C)C)c(O)ccc3nc2-1
t

Below 30% on viability, T/C? Entry Cc1cc(C)c(CNC(=O)c2cc(-c3ccc(CN4CCOCC4)cc3)cc3c2cnn3C2CCCC2)c(=O)[nH]1 + CC[C@@]1(O)C(=O)OCc2c1cc1n(c2=O)Cc2cc3c(CN(C)C)c(O)ccc3nc2-1
f

Below 30% on viability, T/C? Entry CC(C)n1c(=O)n(C)c2cnc3cc(F)c(-c4ccc(OCCCN5CCCCC5)nc4)cc3c21 + CC[C@@]1(O)C(=O)OCc2c1cc1n(c2=O)Cc2cc3c(CN(C)C)c(O)ccc3nc2-1
t

Below 30% on viability, T/C? Entry COc1cc(C)[nH]c(=O)c1CN1CCc2c(Cl)cc(C(OC)C3COC3)c(Cl)c2C1=O (stereo unspecified) + CC[C@@]1(O)C(=O)OCc2c1cc1n(c2=O)Cc2cc3c(CN(C)C)c(O)ccc3nc2-1
f

Below 30% on viability, T/C? Entry CC1COCCN1c1cc(-c2ccnn2C)c2ccnc(-c3ccn[nH]3)c2n1 (stereo unspecified) + CC[C@@]1(O)C(=O)OCc2c1cc1n(c2=O)Cc2cc3c(CN(C)C)c(O)ccc3nc2-1
t

---

- Tested on: VA-ES-BJ tumor spheroid viability
- assay-details: Anticancer human tumor VA-ES-BJ cell line growth inhibition;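 also: spheroids exposed to compounds for seven days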
- cond: curve of first compound; second compound 94.9 pM; spheroids with HUVEC and MSC
Please use 1 (yes) for IC50 under 200 nM and 0 (no) for everything else, ties included.

Below 200 nM on IC50? Entry COc1cc(C)[nH]c(=O)c1CN1CCc2c(Cl)cc(C(OC)C3COC3)c(Cl)c2C1=O (stereo not given) + COc1cc2c(cc1O)CCNC21CSC2c3c(OC(C)=O)c(C)c4c(c3C(COC1=O)N1C(O)C3Cc5cc(C)c(OC)c(O)c5C(C21)N3C)OCO4
0 (no)

Below 200 nM on IC50? Entry Cc1cc(C)c(CNC(=O)c2cc(-c3ccc(CN4CCOCC4)cc3)cc3c2cnn3C2CCCC2)c(=O)[nH]1 + COc1cc2c(cc1O)CCNC21CSC2c3c(OC(C)=O)c(C)c4c(c3C(COC1=O)N1C(O)C3Cc5cc(C)c(OC)c(O)c5C(C21)N3C)OCO4
0 (no)

Below 200 nM on IC50? Entry COc1ccc([C@@H](O)c2cc(-c3ncnc4cc(N5CCOCC5)ccc34)c(F)cc2Cl)nn1 + COc1cc2c(cc1O)CCNC21CSC2c3c(OC(C)=O)c(C)c4c(c3C(COC1=O)N1C(O)C3Cc5cc(C)c(OC)c(O)c5C(C21)N3C)OCO4
0 (no)

Below 200 nM on IC50? Entry Cc1sc2c(c1C)C(c1ccc(Cl)cc1)=NC(CC(=O)Nc1ccc(O)cc1)c1nnc(C)n1-2 (stereo not given) + COc1cc2c(cc1O)CCNC21CSC2c3c(OC(C)=O)c(C)c4c(c3C(COC1=O)N1C(O)C3Cc5cc(C)c(OC)c(O)c5C(C21)N3C)OCO4
1 (yes)

Below 200 nM on IC50? Entry Cn1ncnc1[C@H]1c2n[nH]c(=O)c3cc(F)cc(c23)N[C@@H]1c1ccc(F)cc1 + COc1cc2c(cc1O)CCNC21CSC2c3c(OC(C)=O)c(C)c4c(c3C(COC1=O)N1C(O)C3Cc5cc(C)c(OC)c(O)c5C(C21)N3C)OCO4
1 (yes)

Below 200 nM on IC50? Entry CC1COCCN1c1cc(-c2ccnn2C)c2ccnc(-c3ccn[nH]3)c2n1 (stereo not given) + COc1cc2c(cc1O)CCNC21CSC2c3c(OC(C)=O)c(C)c4c(c3C(COC1=O)N1C(O)C3Cc5cc(C)c(OC)c(O)c5C(C21)N3C)OCO4
1 (yes)

Below 200 nM on IC50? Entry CNCc1ccc(-c2cc(-c3nc(-c4ccc(S(=O)(=O)C(C)C)cc4)cnc3N)on2)cc1 + COc1cc2c(cc1O)CCNC21CSC2c3c(OC(C)=O)c(C)c4c(c3C(COC1=O)N1C(O)C3Cc5cc(C)c(OC)c(O)c5C(C21)N3C)OCO4
1 (yes)

Below 200 nM on IC50? Entry CC(C)n1c(=O)n(C)c2cnc3cc(F)c(-c4ccc(OCCCN5CCCCC5)nc4)cc3c21 + COc1cc2c(cc1O)CCNC21CSC2c3c(OC(C)=O)c(C)c4c(c3C(COC1=O)N1C(O)C3Cc5cc(C)c(OC)c(O)c5C(C21)N3C)OCO4
1 (yes)

Below 200 nM on IC50? Entry O=C(c1cc(Cc2n[nH]c(=O)c3ccccc23)ccc1F)N1CCN(C(=O)C2CC2)CC1 + COc1cc2c(cc1O)CCNC21CSC2c3c(OC(C)=O)c(C)c4c(c3C(COC1=O)N1C(O)C3Cc5cc(C)c(OC)c(O)c5C(C21)N3C)OCO4
0 (no)

Below 200 nM on IC50? Entry [2H]c1nc(C)nc([2H])c1-c1cc(NC[C@@H](C)c2cccc3c(C(=O)NC)ccnc23)ncn1 + COc1cc2c(cc1O)CCNC21CSC2c3c(OC(C)=O)c(C)c4c(c3C(COC1=O)N1C(O)C3Cc5cc(C)c(OC)c(O)c5C(C21)N3C)OCO4
0 (no)

---

- System: VA-ES-BJ tumor spheroid viability
- assay-details: Anticancer human tumor VA-ES-BJ cell line growth inhibition;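 also: spheroids exposed to compounds for seven days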;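 as to viability, T/C: percent of DMSO vehicle control viability so 100% = untreated growth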
- cond: second compound 31.6 µM; first compound 0.0949 µM; stronger effect = lower value; spheroids with HUVEC and MSC
Give viability, T/C for every item shown.
Numeric only. Scale: %

Tell me viability, T/C of CNCc1ccc(-c2cc(-c3nc(-c4ccc(S(=O)(=O)C(C)C)cc4)cnc3N)on2)cc1 + Cn1nnc2c(C(N)=O)ncn2c1=O when tested on VA-ES-BJ tumor spheroid viability.
72.7

Tell me viability, T/C of Cn1ncnc1[C@H]1c2n[nH]c(=O)c3cc(F)cc(c23)N[C@@H]1c1ccc(F)cc1 + Cn1nnc2c(C(N)=O)ncn2c1=O when tested on VA-ES-BJ tumor spheroid viability.
13.4

Tell me viability, T/C of O=C(c1cc(Cc2n[nH]c(=O)c3ccccc23)ccc1F)N1CCN(C(=O)C2CC2)CC1 + Cn1nnc2c(C(N)=O)ncn2c1=O when tested on VA-ES-BJ tumor spheroid viability.
102

Tell me viability, T/C of Cc1sc2c(c1C)C(c1ccc(Cl)cc1)=NC(CC(=O)Nc1ccc(O)cc1)c1nnc(C)n1-2 (centres undefined) + Cn1nnc2c(C(N)=O)ncn2c1=O when tested on VA-ES-BJ tumor spheroid viability.
51.2

---

- System: VA-ES-BJ tumor spheroid viability
- assay-details: Anticancer human tumor VA-ES-BJ cell line growth inhibition;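 also: spheroids exposed to compounds for seven days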;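 as to viability, T/C: percent of DMSO vehicle control viability so 100% = untreated growth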
- cond: second compound 0.0003 µM; first compound 0.1 µM; stronger effect = lower value; spheroids with HUVEC and MSC
measurement-name: viability, T/C (%)
Numeric only. Scale: %

Tell me viability, T/C of CC(C)n1c(=O)n(C)c2cnc3cc(F)c(-c4ccc(OCCCN5CCCCC5)nc4)cc3c21 + COc1cc2c(cc1O)CCNC21CSC2c3c(OC(C)=O)c(C)c4c(c3C(COC1=O)N1C(O)C3Cc5cc(C)c(OC)c(O)c5C(C21)N3C)OCO4 when tested on VA-ES-BJ tumor spheroid viability.
25.1

Tell me viability, T/C of [2H]c1nc(C)nc([2H])c1-c1cc(NC[C@@H](C)c2cccc3c(C(=O)NC)ccnc23)ncn1 + COc1cc2c(cc1O)CCNC21CSC2c3c(OC(C)=O)c(C)c4c(c3C(COC1=O)N1C(O)C3Cc5cc(C)c(OC)c(O)c5C(C21)N3C)OCO4 when tested on VA-ES-BJ tumor spheroid viability.
40.9

Tell me viability, T/C of COc1cc(C)[nH]c(=O)c1CN1CCc2c(Cl)cc(C(OC)C3COC3)c(Cl)c2C1=O (centres undefined) + COc1cc2c(cc1O)CCNC21CSC2c3c(OC(C)=O)c(C)c4c(c3C(COC1=O)N1C(O)C3Cc5cc(C)c(OC)c(O)c5C(C21)N3C)OCO4 when tested on VA-ES-BJ tumor spheroid viability.
36.2

Tell me viability, T/C of Cc1cc(C)c(CNC(=O)c2cc(-c3ccc(CN4CCOCC4)cc3)cc3c2cnn3C2CCCC2)c(=O)[nH]1 + COc1cc2c(cc1O)CCNC21CSC2c3c(OC(C)=O)c(C)c4c(c3C(COC1=O)N1C(O)C3Cc5cc(C)c(OC)c(O)c5C(C21)N3C)OCO4 when tested on VA-ES-BJ tumor spheroid viability.
48.4
